Recorded Release values for a group of compounds are listed next.
Molecular target: Gastrin-releasing peptide receptor (Rattus norvegicus) (UniProt P52500)
Sequence (P52500 whole entry): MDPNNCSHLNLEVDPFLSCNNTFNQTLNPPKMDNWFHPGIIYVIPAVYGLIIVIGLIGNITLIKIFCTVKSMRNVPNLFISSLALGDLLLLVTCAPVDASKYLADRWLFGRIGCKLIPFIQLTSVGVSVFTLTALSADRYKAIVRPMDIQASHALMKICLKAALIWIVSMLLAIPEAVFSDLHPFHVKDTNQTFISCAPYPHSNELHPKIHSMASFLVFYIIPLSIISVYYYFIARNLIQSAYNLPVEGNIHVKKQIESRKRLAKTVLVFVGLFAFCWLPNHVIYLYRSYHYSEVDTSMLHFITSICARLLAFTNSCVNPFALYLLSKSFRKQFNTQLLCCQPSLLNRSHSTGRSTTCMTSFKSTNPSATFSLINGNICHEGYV
Experiment: Tested for the inhibition of Bombesin-stimulated amylase release at 50 nM concentration in the presence of 0.2 nM of bombesin in rat pranceatic acini
Type: functional
Where a SMILES comes first, the peptide text is derived from it. The star is where a group is joined. X1 = CSCC[C@H](NC[C@H](CC(C)C)N*)C(N)=O; X2 = CC(=O)NC[C@H](CC(C)C)N*

{"compound": "CC(=O)NC[C@H](CC(C)C)NC(=O)[C@H](Cc1c[nH]cn1)NC(=O)CNC(=O)[C@@H](NC(=O)[C@H](C)NC(=O)[C@H](Cc1c[nH]c2ccccc12)NC(=O)[C@H](Cc1c[nH]cn1)NC(=O)[C@@H](N)CCC(N)=O)C(C)C (H-QHWAVGH-X2)", "Release, %": 14.5}
{"compound": "CSCC[C@H](NC[C@H](CC(C)C)NC(=O)[C@H](Cc1c[nH]cn1)NC(=O)CNC(=O)[C@@H](NC(=O)[C@H](C)NC(=O)[C@H](Cc1c[nH]c2ccccc12)NC(=O)[C@H](CC(N)=O)NC(=O)CN)C(C)C)C(N)=O", "Release, %": 22.7}
{"compound": "CSCC[C@H](NC[C@H](CC(C)C)NC(=O)[C@H](Cc1c[nH]cn1)NC(=O)CNC(=O)[C@@H](NC(=O)[C@H](C)NC(=O)[C@H](Cc1c[nH]c2ccccc12)NC(=O)[C@H](N)Cc1ccccc1)C(C)C)C(N)=O", "Release, %": 19.6}
{"compound": "CN[C@H](Cc1ccccc1)C(=O)N[C@@H](Cc1c[nH]c2ccccc12)C(=O)N[C@@H](C)C(=O)N[C@H](C(=O)NCC(=O)N[C@@H](Cc1c[nH]cn1)C(=O)N[C@H](CN[C@@H](CCSC)C(N)=O)CC(C)C)C(C)C", "Release, %": 16}
{"compound": "CCCCC[C@H](CC(C)C)NC(=O)[C@H](Cc1c[nH]cn1)NC(=O)CNC(=O)[C@@H](NC(=O)[C@H](C)NC(=O)[C@H](Cc1c[nH]c2ccccc12)NC(=O)[C@@H](Cc1c[nH]cn1)NC(=O)C(C)(C)C)C(C)C", "Release, %": 6.3}
{"compound": "CC(=O)NC[C@H](CC(C)C)NC(=O)[C@H](Cc1c[nH]cn1)NC(=O)CNC(=O)[C@@H](NC(=O)[C@H](C)NC(=O)[C@H](Cc1c[nH]c2ccccc12)NC(=O)[C@H](Cc1c[nH]cn1)NC(=O)[C@H](CCC(N)=O)NC(C)=O)C(C)C (Ac-QHWAVGH-X2)", "Release, %": 12.2}
{"compound": "CC(=O)NC[C@H](CC(C)C)NC(=O)[C@H](Cc1c[nH]cn1)NC(=O)CNC(=O)[C@@H](NC(=O)[C@H](C)NC(=O)[C@H](Cc1c[nH]c2ccccc12)NC(=O)[C@H](Cc1c[nH]cn1)NC(=O)[C@@H](Cc1ccccc1)NC(C)=O)C(C)C", "Release, %": 16.7}
{"compound": "CC(=O)NC[C@H](CC(C)C)NC(=O)[C@H](Cc1c[nH]cn1)NC(=O)CNC(=O)[C@@H](NC(=O)[C@H](C)NC(=O)[C@H](Cc1c[nH]c2ccccc12)NC(=O)[C@H](CCC(N)=O)NC(=O)[C@H](N)Cc1ccccc1)C(C)C", "Release, %": 10.3}
{"compound": "CSCC[C@H](NC[C@H](CC(C)C)NC(=O)[C@H](Cc1c[nH]cn1)NC(=O)CNC(=O)[C@@H](NC(=O)[C@H](C)NC(=O)[C@H](Cc1c[nH]c2ccccc12)NC(C)=O)C(C)C)C(N)=O (Ac-WAVGH-X1)", "Release, %": 17.9}

Where do the numbers come from? From ChEMBL document CHEMBL1125552.
